- SYSTEM NAME: T1, 4H2667-bA
- T1 chain: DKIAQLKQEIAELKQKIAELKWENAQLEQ
- PROTOCOL NOTES: two-hybrid library CCNG1;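 also: natural log of median RNA to DNA barcode read ratio; higher means stronger binding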
MEASUREMENT NAME: interaction score
// no unit, no text: just the number

[[record]]
binder = "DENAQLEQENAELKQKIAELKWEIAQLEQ [4H1257-bA]"
measurement_name = "interaction score"
quantitative_result = -0.847

[[record]]
binder = "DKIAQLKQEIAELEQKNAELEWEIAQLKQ [4H2610-bA]"
measurement_name = "interaction score"
quantitative_result = 0.718

[[record]]
binder = "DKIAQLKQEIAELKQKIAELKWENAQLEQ [4H2667-bA]"
measurement_name = "interaction score"
quantitative_result = 0.263


Switching to the query record.
stdin: Item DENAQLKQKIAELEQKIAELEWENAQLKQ [4H1828-bA] has what recorded interaction score?
stdout: 0.0606
